Entry source: ChEMBL document CHEMBL5058577

Test system: Fibroblast
Test: Multiplex assay against human fibroblast
Type: toxicity, cell-based
Conditions: 48 h, 10 µM, compound concentration 10 uM, replicate 2
Experimental Endpoint: Population Membrane Permeable-Phenotype (%)
State the result as a value with its unit after it.

Solved cases (5 shown):
O=C(NCC(=O)N1CC[C@H](N[C@H]2CC[C@@](O)(c3ccc(-c4ncccn4)cn3)CC2)C1)c1cccc(C(F)(F)F)c1: 6%
CN(C)c1ccnc2sc3c(=O)n(N4CCCCCC4)cnc3c12: 19%
COc1c(C)cc(NC(=O)c2nn(Cc3ccc(F)cc3)c3c2CN(C(=O)c2ccc[nH]2)C[C@]3(C)C(N)=O)cc1C: 3%
O=S(=O)(c1ccccc1)c1cnc2c(N3CCNCC3)cccc2c1 [INTEPIRDINE]: 6%
c1cc(OCCCN2CCCCC2)ccc1CN1CCCCC1: 5%

CSc1ccccc1N1CCN(CCCCCC(=O)NC2CCCc3ccccc32)CC1.Cl (stereo not drawn) yielded Population Membrane Permeable-Phenotype (%) of 2%

Sure, the documented Population Membrane Permeable-Phenotype (%) for `CC[C@H]1OC(=O)[C@H](C)[C@@H](O[C@H]2C[C@@](C)(OC)[C@@H](O)[C@H](C)O2)[C@H](C)[C@@H](O[C@@H]2O[C@H](C)C[C@H](N(C)C)[C@H]2O)[C@@]2(C)CC(C)=C(O2)[C@H](C)[C@@H](O)[C@]1(C)O` is 6%

Reported Population Membrane Permeable-Phenotype (%) of CNC[C@H](O)c1ccc(O)c(O)c1 [EPINEPHRINE] : 6%

* * *

Tested on: HEK-293T
Assay: Multiplex assay against HEK293T
Type: toxicity, cell-based
Details: human, 24 h, 10 µM, compound concentration 10 uM, replicate 1
I would appreciate it if you labelled entries t when Population Fragmented Nuclei (%) is 9% or higher, otherwise f.

A selection of reference data follows.
O=C(NCC(=O)N1CC[C@H](N[C@H]2CC[C@@](O)(c3ccc(-c4ncccn4)cn3)CC2)C1)c1cccc(C(F)(F)F)c1: t
CCNC1(C(N)=O)CCN(c2ncnc3c2nc(-c2ccccc2Cl)n3-c2ccc(Cl)cc2)CC1: f
O=C(NCCO)c1cccc(-c2cc(Nc3ccc(OC(F)(F)F)cc3)ncn2)c1: f
Cc1ccc(C(C)(O)c2nc3ccccc3s2)c(C)c1 (configuration not stated): f

Hi, just wondering whether `CCOc1c2c(c(OCC)c3ncccc13)CN(c1ccc(CS(=O)(=O)NC(=O)Cc3ccccc3OC)cc1C)C2=O` shows Population Fragmented Nuclei (%) of 9% or higher. t

Please tell me: is the compound O=S(=O)(c1ccccc1)c1cnc2c(N3CCNCC3)cccc2c1 [INTEPIRDINE] at or over 9% in terms of Population Fragmented Nuclei (%)? t

Given `O=C(O)Cc1ccccc1Nc1c(Cl)cccc1Cl` , state whether its Population Fragmented Nuclei (%) is at least 9%. t

Can CNC[C@H](O)c1ccc(O)c(O)c1 [EPINEPHRINE] be said to have Population Fragmented Nuclei (%) at or above 9%? t

hey, is Population Fragmented Nuclei (%) for this one >= 9%? `COc1c(C)cc(NC(=O)c2nn(Cc3ccc(F)cc3)c3c2CN(C(=O)c2ccc[nH]2)C[C@]3(C)C(N)=O)cc1C` f

Hi team, for `N#Cc1c(N)nc(SCc2csc(-c3ccc(Cl)cc3)n2)c(C#N)c1-c1ccc(OCCO)cc1` , is the recorded Population Fragmented Nuclei (%) at or above 9%? f

Answer whether Population Fragmented Nuclei (%) of Cc1ccccc1C(=O)Nc1ccc(C(=O)N2CCCC(N(C)C)c3ccccc32)cc1.Cl (configuration not stated) is greater than or equal to 9%. f
